- MEASURED ON: mouse Tas2r144 (Mus musculus, UniProt Q7TQB8)
- Construct: expressed in transfected cells; host or cells: HEK293T-Gα16gust44
- Sequence (Q7TQB8 whole entry): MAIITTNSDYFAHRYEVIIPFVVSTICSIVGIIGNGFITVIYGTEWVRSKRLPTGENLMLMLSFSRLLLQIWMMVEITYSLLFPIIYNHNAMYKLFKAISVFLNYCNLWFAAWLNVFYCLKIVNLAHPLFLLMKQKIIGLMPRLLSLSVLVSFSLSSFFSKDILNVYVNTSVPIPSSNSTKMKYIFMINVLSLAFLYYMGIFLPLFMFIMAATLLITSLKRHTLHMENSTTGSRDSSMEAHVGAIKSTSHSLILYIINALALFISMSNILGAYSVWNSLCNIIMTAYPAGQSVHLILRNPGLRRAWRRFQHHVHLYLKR
- ASSAY REMARKS: Calcium imaging assay (FLIPR), HEK293T-Gα16gust44 cells transfected with mouse Tas2r144
- Format: cell-based
- SETUP CONDITIONS: Time 60.781 s
Assignment: determine reported RLU for the given compounds.
Give bare numbers, in RLU.

Consider the following items and state reported RLU for each.
1. C[C@H](CCC(=O)O)[C@H]1CC[C@H]2[C@@H]3[C@H](O)C[C@@H]4C[C@H](O)CC[C@]4(C)[C@H]3C[C@H](O)[C@]12C
2. C[C@H](CCC(=O)NCC(=O)O)[C@H]1CC[C@H]2[C@@H]3[C@H](O)C[C@@H]4C[C@H](O)CC[C@]4(C)[C@H]3C[C@H](O)[C@]12C
3. C[C@H](CCC(=O)NCCS(=O)(=O)O)[C@H]1CC[C@H]2[C@@H]3[C@H](O)C[C@@H]4C[C@H](O)CC[C@]4(C)[C@H]3C[C@H](O)[C@]12C
4. C[C@H](CCC(=O)NCCS(=O)(=O)O)[C@H]1CC[C@H]2[C@@H]3CC[C@@H]4C[C@H](O)CC[C@]4(C)[C@H]3CC[C@]12C

OUTPUT:
1: 666.775; 2: 431.497; 3: 540.78; 4: 413.492

====

- MEASURED ON: human TAS2R1 (Homo sapiens, UniProt Q9NYW7)
- Construct: expressed in transfected cells; host or cells: HEK293T-Gα16gust44
- Sequence (Q9NYW7 1-299): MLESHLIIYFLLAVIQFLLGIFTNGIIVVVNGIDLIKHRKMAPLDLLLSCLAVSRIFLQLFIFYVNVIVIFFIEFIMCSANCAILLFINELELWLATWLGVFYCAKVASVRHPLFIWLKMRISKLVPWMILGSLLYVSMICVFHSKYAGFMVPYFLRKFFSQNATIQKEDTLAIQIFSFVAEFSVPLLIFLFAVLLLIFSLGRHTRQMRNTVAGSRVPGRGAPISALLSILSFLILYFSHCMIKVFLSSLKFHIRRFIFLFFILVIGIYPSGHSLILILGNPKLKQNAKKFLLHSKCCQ
- ASSAY REMARKS: Calcium imaging assay (FLIPR), HEK293T-Gα16gust44 cells transfected with human TAS2R1
- Type: cell-based
- SETUP CONDITIONS: Time 84.781 s
MEASUREMENT NAME: RLU (RLU)
Answers are plain numbers, in RLU.

Some entries whose results are on file:
C[C@H](CCC(=O)NCCS(=O)(=O)O)[C@H]1CC[C@H]2[C@@H]3[C@H](O)C[C@@H]4C[C@H](O)CC[C@]4(C)[C@H]3C[C@H](O)[C@]12C    402.626
C[C@H](CCC(=O)O)[C@H]1CC[C@H]2[C@@H]3CC[C@@H]4C[C@H](O)CC[C@]4(C)[C@H]3C[C@H](O)[C@]12C    413.712
C[C@H](CCC(=O)NCCS(=O)(=O)O)[C@H]1CC[C@H]2[C@@H]3CC[C@@H]4C[C@H](O)CC[C@]4(C)[C@H]3CC[C@]12C    729.602

Read the next record carefully.
INPUT: # get_value(readout= RLU, system= human TAS2R1 (Homo sapiens, UniProt Q9NYW7)) for `C[C@H](CCC(=O)NCC(=O)O)[C@H]1CC[C@H]2[C@@H]3[C@H](O)C[C@@H]4C[C@H](O)CC[C@]4(C)[C@H]3C[C@H](O)[C@]12C`
OUTPUT: 592.001
